Molecular target: Gal(b1-4)Glc6S
Experiment: glycan array binding signal (z-score within array); higher = stronger binding
Conditions: glycan notation: IUPAC condensed, linker removed
About 410 targets per protein were measured; listed, in parts, are those with the strongest signals and a random draw of the rest.
reported-metric: glycan array binding signal (z-score)

Tell me measured glycan array binding signal (z-score) for Epa19 (Candida glabrata) (protein) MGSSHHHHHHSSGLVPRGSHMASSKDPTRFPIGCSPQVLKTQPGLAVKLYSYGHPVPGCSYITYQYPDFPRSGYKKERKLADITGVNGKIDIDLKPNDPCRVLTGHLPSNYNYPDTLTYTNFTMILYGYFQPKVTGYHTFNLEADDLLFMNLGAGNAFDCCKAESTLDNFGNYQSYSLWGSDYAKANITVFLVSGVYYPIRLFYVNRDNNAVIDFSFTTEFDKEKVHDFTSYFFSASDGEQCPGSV please. 2.4
